Tested on: MALME-3M melanoma
Experiment: NCI tumour cell line growth inhibition, 48 h
Outcome: Satisfied for TGI of at least 30 µM; Not satisfied for anything lower.

| molecule | test target | group label |
| --- | --- | --- |
| COc1ccc2nc(-c3ccc(O)cc3)cn2c1 | MALME-3M melanoma | Satisfied |
| O=C1C(c2c(O)[nH]c3ccc(S(=O)(=O)N(CCO)CCO)cc23)=Nc2ccccc21 | MALME-3M melanoma | Satisfied |
| Nc1nn(C(=O)Nc2ccc(Cc3ccccc3)cc2)c2ccccc12 | MALME-3M melanoma | Satisfied |
| O=C(O)c1cn(C2CC2)c2cc(N3CCN(C(=O)Nc4nc(-c5ccc(Cl)cc5)cs4)CC3)c(F)cc2c1=O | MALME-3M melanoma | Not satisfied |

With those in mind, consider the next molecule.
Decide: TGI of `O=c1[nH][nH]c(=S)c(=O)[nH]1` >= 30 µM?
Satisfied
